B1: library; numbered along this chain (parent)
chain: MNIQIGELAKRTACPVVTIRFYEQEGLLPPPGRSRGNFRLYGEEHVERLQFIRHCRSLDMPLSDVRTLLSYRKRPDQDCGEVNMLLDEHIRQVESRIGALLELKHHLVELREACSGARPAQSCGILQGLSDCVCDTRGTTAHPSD

# Variants of: B1
# ASSAY_METHOD_TEXT: sfGFP reporter fluorescence (15 h) (µM FITC); higher = higher leak
# STUDY_CONDITIONS: library round: Round 0; ligand: none
Items are presented alongside their recorded sfGFP reporter fluorescence.
Number only, please.

>>> recorded_value("E94V")
0.059

## Input Recorded sfGFP reporter fluorescence for E7Q , please?
## Output 0.0605

## Input Recorded sfGFP reporter fluorescence for T140A , please?
## Output 0.0614
